assay: adipocyte viability effects, profiling panel, cell-based, 3T3-L1 adipocytes, calcein-AM fluorescence, 48 h, basal (AID 1163); settings: 3T3-L1 adipocytes viability, higher = more signal; note: test concentration not given here
Label key: 1 means z-score under 0.3; -1 means z-score of 0.3 or more.

QUERY: # strict comparison: is reported z-score < 0.3? input = "COc1ccc(CCNC(=O)[C@@H]2c3ccccc3C(=O)N(C3Cc4ccccc4C3)[C@H]2c2ccc(CO)cc2)cc1"
RESULT: 1

QUERY: Dear colleague, could you confirm whether z-score of "COC(=O)[C@@]1(Cc2ccc(F)cc2)[C@H]2c3cc(C(=O)N4CCCC4)n(Cc4cc(C)n(C)n4)c3C[C@H]2CN1C(=O)c1ccccc1" falls below 0.3? Thanks.
RESULT: 1

QUERY: Lab note: z-score threshold 0.3. Does this compound come in strictly under it? CC1(C)[C@@H]2CC(C(O)C3C=CC4C(=O)N(c5ccccc5)C(=O)C4N3Nc3ccccc3)=C[C@H]1C2 (stereo partly drawn)
RESULT: 1

QUERY: Quick check: z-score of CCN(CC)c1ccc(N2CC=CC34O[C@@H]5/C=C\CCC(C)OC(=O)C5[C@H]3C(=O)N(C(CO)C(C)C)[C@@H]4C2=O)cc1 (stereo partly drawn) under 0.3?
RESULT: 1

QUERY: Lab note: confirm whether the reported z-score for this compound is below 0.3, equality not counting. compound: "O=C1c2ccccc2[C@](Cc2ccccc2I)(C(=O)NC2CC2)[C@H](c2ccc(CO)cc2)N1C1CCCCC1"
RESULT: -1

QUERY: Is z-score strictly under 0.3 for the entry "NC(=O)[C@@H]1[C@H]2C(=O)O[C@H](c3ccccc3)[C@H](c3ccccc3)N2[C@H](c2ccc(O)cc2)[C@@]12C(=O)Nc1ccc(C#CC3(O)CCCCCC3)cc12" ?
RESULT: 1

QUERY: Dear colleague, could you confirm whether z-score of O=C1OCCC/C=C\[C@H]2OC34C=CCN(CCN5CCOCC5)C(=O)[C@H]3N(CCCO)C(=O)[C@@H]4C12 (stereo partly drawn) falls below 0.3? Thanks.
RESULT: -1

QUERY: Please let me know if CN1C(=O)C2C=CC(C(O)C3CCCCC3)N(Nc3ccc([N+](=O)[O-])cc3[N+](=O)[O-])C2C1=O (stereo not drawn) shows z-score below 0.3.
RESULT: 1

QUERY: Dear colleague, could you confirm whether z-score of O=C1OCC=C[C@H]2OC34C=CCN(CCN5CCOCC5)C(=O)[C@H]3N(CCCO)C(=O)[C@@H]4[C@@H]12 (stereo partly drawn) falls below 0.3? Thanks.
RESULT: -1

QUERY: API: query returns whether the compound falls strictly under 0.3 in z-score. Query: C=CCC(OC(C)=O)[C@@H]1[C@@H](N(Cc2ccc(-c3ccccc3)cc2)C(=O)Cc2ccc(F)cc2)c2cc(OCCCO)ccc2N1C(=O)c1ccc(-c2ccccc2)cc1 (stereo partly drawn)
RESULT: -1

QUERY: Consider "COCCOC(=O)N1C(=O)[C@@]2(c3cc(C#Cc4ccc(OC)cc4)ccc31)[C@H](c1ccccc1OCCO)N1[C@H](c3ccccc3)[C@H](c3ccccc3)OC(=O)[C@H]1[C@@H]2C(=O)N1CCN(c2ncccn2)CC1" . Does its z-score lie strictly below 0.3?
RESULT: 1

QUERY: Given the entry "COCCOC(=O)N1C(=O)[C@@]2(c3cc(C#CC4=CCCCC4)ccc31)[C@H](C(=O)N1CCc3cc(OC)c(OC)cc3C1)[C@H]1C(=O)O[C@H](c3ccccc3)[C@H](c3ccccc3)N1[C@@H]2c1ccc(OCCO)cc1" , would its reported z-score be below 0.3?
RESULT: -1
